Test system: SW-620 colon
Assay: NCI-60 one-dose screen, 48 h (100 = growth as untreated, 0 = no growth, -100 = all killed)
Settings: 10 µM unless noted
Procedure: Growth inhibition of the SW-620 human tumor cell line is measured as a screen for anti-cancer activity. Cells are grown in 96 well plates and exposed to the test compound for 48 hours. Compounds are tested at a single concentration, which is 10^-5 M for most compounds. The reported endpoint is percent growth (GI% or GIPRCNT), where numbers from 0 - 100% represent growth inhibition, and numbers from -100% - 0 represent cell death. For example, a value of 40 represents 60% growth inhibition. […]
About 83,000 compounds went through this panel and 20% of them were active in at least one assay; those are over-represented in the sample as a whole.
quantity_name: growth (%)
Record the value in %, omitting the unit from your answer.

See these solved cases before continuing.
> print(dat)
                                   compound  measurement.target  quantity.name  assay.value
1              C=CCN(/C=C/CN(CC=C)CC=C)CC=C        SW-620 colon         growth          102
2  Clc1ccc2c(c1)C(Br)c1cc(Cl)cc(Cl)c1-2 (stereo not given)        SW-620 colon         growth         60.4
3  CC(=O)O[C@H]1CC[C@@]2(C)C(=CC[C@@H]3[C@@H]2CC[C@]2(C)C(c4cccnc4)=CC[C@@H]32)C1        SW-620 colon         growth         76.4
4  CC(=O)OCC(=O)[C@@]1(O)CC[C@H]2[C@@H]3CCC4=CC(=O)CC[C@]4(C)[C@@]3(F)[C@@H](O)C[C@@]21C        SW-620 colon         growth         98.3
5                    NC(=O)NC1(C(=O)O)CCCC1        SW-620 colon         growth          109
6      O=C(C(=O)c1cc(Br)ccc1O)c1cc(Br)ccc1O        SW-620 colon         growth         66.5

The compound NC(=N\N=C/Cc1ccccc1)/C(N)=N\N=C\Cc1ccccc1 on SW-620 colon: growth was 104

# CSc1nc(Nc2ccc(S(=O)(=O)Nc3ccon3)cc2)c(C#N)c(-c2ccc(Cl)cc2)n1 with SW-620 colon: growth is 70.5

The value of growth recorded for N#Cc1c(-c2ccccc2)cc(-c2ccccc2)n(CC(=O)O)c1=O when tested on SW-620 colon reads 32.8

growth on SW-620 colon for N#Cc1c(-c2ccccc2)cc(-c2ccccc2)n(CCCC(=O)O)c1=O is 105
